The origin of these recorded values is patent US12240838B2.

Entries and their pIC50 values follow.
# assayed.target: BTK (Homo sapiens (Human), UniProt Q06187)
# Sequence (Q06187 whole entry): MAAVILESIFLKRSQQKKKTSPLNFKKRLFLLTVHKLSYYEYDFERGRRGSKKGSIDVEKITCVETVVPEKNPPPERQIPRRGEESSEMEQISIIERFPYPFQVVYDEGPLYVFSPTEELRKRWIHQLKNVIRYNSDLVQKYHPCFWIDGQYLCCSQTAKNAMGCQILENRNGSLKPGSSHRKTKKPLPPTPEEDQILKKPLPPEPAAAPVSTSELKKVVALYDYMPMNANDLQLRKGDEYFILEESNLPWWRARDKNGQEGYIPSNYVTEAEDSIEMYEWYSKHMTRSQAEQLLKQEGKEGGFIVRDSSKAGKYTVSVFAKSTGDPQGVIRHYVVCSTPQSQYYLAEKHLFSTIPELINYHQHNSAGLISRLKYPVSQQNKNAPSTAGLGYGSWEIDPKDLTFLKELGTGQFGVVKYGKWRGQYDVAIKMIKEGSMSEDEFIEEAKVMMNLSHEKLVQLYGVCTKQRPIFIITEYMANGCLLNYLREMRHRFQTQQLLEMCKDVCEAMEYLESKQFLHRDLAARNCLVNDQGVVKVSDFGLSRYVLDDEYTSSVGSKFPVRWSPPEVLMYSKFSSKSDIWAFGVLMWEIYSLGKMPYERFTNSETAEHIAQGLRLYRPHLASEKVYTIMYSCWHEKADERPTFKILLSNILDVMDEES
# assay.comment: In Vitro BTK Kinase Assay: BTK-POLYGAT-LS ASSAY
# Type: biochemical
# study.conditions: ATP 10 μM, polyGAT 100 nM, BTK 0.25 nM, 30 minutes
pIC50: −log10 of the molar value.

Example entries begin here.
compound: Cc1cc(-c2ccnc(NC(=O)C3CC3(C)C)c2)ccc1CNC(=O)c1noc(C(C)(C)C)n1 (centres unmarked)
pIC50: 8.00 to 9.00
//
compound: CC(C)(C)c1noc(C(=O)N[C@@H]2CCCCc3cc(-c4ccnc(NC(=O)[C@@H]5C[C@H]5C(F)(F)F)c4)ccc32)n1
pIC50: ≥ 9.00
//
compound: CC(C)(C)c1nc(C(=O)NCc2ccc(-c3ccnc(NC(=O)C4CC4)c3)cc2OC(F)(F)F)no1
pIC50: ≥ 9.00

Form field, pIC50 with BTK (Homo sapiens (Human), UniProt Q06187), item `Cc1cc(-c2ccnc(NC(=O)C3CC3)c2)ccc1CNC(=O)c1nn(C(C)(C)C)cc1F` : ≥ 9.00

Form field, pIC50 with BTK (Homo sapiens (Human), UniProt Q06187), item `Cc1cc(-c2cc(NC(=O)C3CC3)ncc2Cl)ccc1CNC(=O)c1noc(C(C)(C)C)n1` : ≥ 9.00

Form field, pIC50 with BTK (Homo sapiens (Human), UniProt Q06187), item `CC(C)(C)c1nc(C(=O)NCc2ccc(-c3ccnc(NC(=O)C4CC4)c3)cc2C(C)(C)C)no1` : 8.00 to 9.00

Form field, pIC50 with BTK (Homo sapiens (Human), UniProt Q06187), item `CC(C)(C)c1noc(C(=O)NCc2ccc(-c3ccnc(NC(=O)C4CC4)c3)c(F)c2C(F)F)n1` : ≥ 9.00

Form field, pIC50 with BTK (Homo sapiens (Human), UniProt Q06187), item `CC(C)(C)c1nc(C(=O)NCc2ccc(-c3ccnc(NC(=O)C4CC4)c3)c(F)c2C(F)(F)F)no1` : ≥ 9.00

Form field, pIC50 with BTK (Homo sapiens (Human), UniProt Q06187), item `C[C@@H](NC(=O)c1noc(C(C)(C)C)n1)c1cc(F)c(-c2ccnc(NC(=O)C3CC3)c2)cc1Cl` : ≥ 9.00

Form field, pIC50 with BTK (Homo sapiens (Human), UniProt Q06187), item CC(C)(C)c1noc(C(=O)N[C@@H]2CCCCc3cc(-c4ccnc(NC(=O)C5CC5(F)F)c4)ccc32)n1 (some centres unmarked) : ≥ 9.00

Form field, pIC50 with BTK (Homo sapiens (Human), UniProt Q06187), item `COc1cc(-c2ccnc(NC(=O)C3CC3)c2)ccc1CNC(=O)c1noc(C(C)(C)C)n1` : ≥ 9.00

Form field, pIC50 with BTK (Homo sapiens (Human), UniProt Q06187), item `Cc1c(CNC(=O)c2noc(C(C)(C)C)n2)cc(F)c(-c2ccnc(NC(=O)C3CC3)c2)c1F` : ≥ 9.00
